Provenance of the data: ChEMBL document CHEMBL3091288

Measured solubility, listed per entry.
Assay: Solubility of the compound in fasted state simulated intestinal fluid measured after overnight incubation by UV-HPLC analysis
Assay type: ADME
The answer is to be given in µg/mL; state only the numeric part.

For orientation, consider the following solved cases.
>  <CHEM_SMILES>
CNS(=O)(=O)Nc1cccc(Cc2c(C)c3cc(I)c(OC(=O)N(C)C)cc3oc2=O)c1

>  <solubility / µg/mL>
8

$$$$
>  <CHEM_SMILES>
CN(C)C(=O)Oc1ccc2c(CF)c(Cc3cccc(NS(N)(=O)=O)c3)c(=O)oc2c1

>  <solubility / µg/mL>
14

$$$$
>  <CHEM_SMILES>
CNS(=O)(=O)Nc1cccc(Cc2c(C)c3cc(C)c(OC(=O)N(C)C)cc3oc2=O)c1

>  <solubility / µg/mL>
11

$$$$

Annotate the molecule Cc1c(Cc2cc(NS(N)(=O)=O)ccc2F)c(=O)oc2cc(OC(=O)N(C)C)ccc12 with its measured solubility. 9

###

Parameter pIC50, tested on RAF proto-oncogene serine/threonine-protein kinase (Homo sapiens, UniProt P04049), listed per item.
Sequence (P04049 whole entry): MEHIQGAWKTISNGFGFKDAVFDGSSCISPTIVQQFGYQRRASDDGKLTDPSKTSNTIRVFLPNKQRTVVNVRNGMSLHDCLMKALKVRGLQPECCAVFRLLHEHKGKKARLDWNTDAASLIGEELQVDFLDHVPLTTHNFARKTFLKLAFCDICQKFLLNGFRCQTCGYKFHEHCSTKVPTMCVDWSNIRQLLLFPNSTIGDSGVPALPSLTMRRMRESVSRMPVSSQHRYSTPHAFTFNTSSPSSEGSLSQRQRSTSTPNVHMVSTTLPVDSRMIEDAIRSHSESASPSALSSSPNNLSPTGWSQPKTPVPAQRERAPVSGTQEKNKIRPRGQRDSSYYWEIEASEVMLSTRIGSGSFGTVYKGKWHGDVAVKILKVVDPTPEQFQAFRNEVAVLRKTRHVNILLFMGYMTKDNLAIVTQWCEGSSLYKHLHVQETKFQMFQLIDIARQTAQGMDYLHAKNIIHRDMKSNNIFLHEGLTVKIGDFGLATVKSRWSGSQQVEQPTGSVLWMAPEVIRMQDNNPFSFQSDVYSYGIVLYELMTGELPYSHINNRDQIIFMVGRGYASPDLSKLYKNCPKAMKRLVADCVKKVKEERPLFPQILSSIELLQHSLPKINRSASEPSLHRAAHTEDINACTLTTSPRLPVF
Note: pIC50 values are expressed as the negative base-10 logarithm of concentration in M.

For orientation, consider the following solved cases.
>  <CHEM_SMILES>
CNS(=O)(=O)Nc1cccc(Cc2c(C)c3cc(I)c(OC(=O)N(C)C)cc3oc2=O)c1

>  <SYSTEM_UNDER_TEST>
RAF proto-oncogene serine/threonine-protein kinase (Homo sapiens, UniProt P04049)

>  <pIC50>
7.60

$$$$
>  <CHEM_SMILES>
CNS(=O)(=O)Nc1cccc(Cc2c(C)c3ccc(OC(=O)N(C)C)cc3oc2=O)c1

>  <SYSTEM_UNDER_TEST>
RAF proto-oncogene serine/threonine-protein kinase (Homo sapiens, UniProt P04049)

>  <pIC50>
6.52

$$$$

Write down the reported pIC50 (system: RAF proto-oncogene serine/threonine-protein kinase (Homo sapiens, UniProt P04049)) of CNS(=O)(=O)Nc1cccc(Cc2c(C)c3ccc(OC(=O)N(C)C)cc3oc2=O)c1F 8.10

Write down the reported pIC50 (system: RAF proto-oncogene serine/threonine-protein kinase (Homo sapiens, UniProt P04049)) of Cc1c(Cc2cccc(NS(N)(=O)=O)c2)c(=O)oc2cc(OC(=O)N(C)C)c(F)cc12 6.74

###

Target: RAF proto-oncogene serine/threonine-protein kinase (Homo sapiens)
Test: Inhibition of C-Raf (unknown origin) assessed as phosphorylation of MEK1 after 45 mins by TR-FRET assay
Measured IC50, listed per entry.
The answer is to be given in nM; state only the numeric part.

>  <CHEM_SMILES>
Cc1c(Cc2cccc(NS(N)(=O)=O)c2)c(=O)oc2cc(OC(=O)N(C)C)ccc12

>  <VALUE>
530

$$$$
>  <CHEM_SMILES>
CN(C)C(=O)Oc1ccc2c(CF)c(Cc3cccc(NS(N)(=O)=O)c3)c(=O)oc2c1

>  <VALUE>
220

$$$$

--- query ---
Annotate the compound C#Cc1cc2c(C)c(Cc3cccc(NS(=O)(=O)NC)c3)c(=O)oc2cc1OC(=O)N(C)C with its measured IC50. 70

###

Assay: Oral bioavailability in rat at 10 mg/kg by LC-MS/MS analysis
Type: ADME, organism-based
Conditions: in vivo
VALUE_TYPE: bioavailability (%)
The answer is to be given in %; state only the numeric part.

Annotate the molecule CNS(=O)(=O)[N-]c1cccc(Cc2c(C)c3ccc(Oc4ncccn4)cc3oc2=O)c1F.[Na+] with its measured bioavailability. 84
